Target: human ACC1 (Homo sapiens, UniProt Q13085)
Test: Acetyl CoA carboxylase (ACC) activity inhibition test, human ACC1
Format: biochemical
Conditions: 1 μmol/liter compound; control: DMSO well without test compound; read-out: Inhibition (%) by 1 μmol/liter Chemical, human ACC1
Structures can show the parent of a compound that is named as a salt.
recorded_endpoint: inhibition at 1 µM (%)
Reply numerically in %, unit not repeated.

Reference set, count: 4
COc1cc(C(=O)N2CCC3(CC2)CC(=O)c2cc(-c4nnn[nH]4)ccc2O3)nc2c(OC)cccc12 [Example 18, sodium salt]
97
COc1cc(C(=O)N2CCC3(CC2)CC(=O)c2cc(Nc4ccnn4C)ccc2O3)nc2c(OC)cccc12
100
COc1cc(C(=O)N2CCC3(CC2)CC(=O)c2ccccc2O3)nc2c(OC)cccc12
93
COc1cc(C(=O)N2CCC3(CC2)CC(=O)c2cc(NC(C)=O)ccc2O3)nc2c(OC)cccc12
100

Notebook: COc1cc(C(=O)N2CCC3(CC2)CC(=O)c2cc(NC(C)=O)ccc2O3)nc2ccccc12 [Example 2, hydrochloride] , inhibition at 1 µM read as 82

Field inhibition at 1 µM (entry `COc1cc(C(=O)N2CCC3(CC2)CC(=O)c2cc(N)ccc2O3)nc2c(OC)cccc12` ) reads 97

Given item `CCOc1cc(C(=O)N2CCC3(CC2)CC(=O)c2cc(-c4nnn[nH]4)ccc2O3)nc2c(C3CC3)nccc12` , the value recorded as its inhibition at 1 µM is 99

Entry `COc1cc(C(=O)N2CCC3(CC2)CC(=O)c2cc(-c4nc[nH]n4)ccc2O3)nc2c(OC)cccc12` ; inhibition at 1 µM = 101
